- Tested on: PPARg:RXRa 90nM:30nM, anti-RXR (NR concentration 90 nM, RXRa partner concentration 30 nM)
- Experimental Protocol: PBM binding z-score (relative to random genomic background probes); higher = stronger binding; sequences stand for … in GC…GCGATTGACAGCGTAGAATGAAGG
Class membership depends on PBM binding z-score alone; the intervals are LOW (below 0.5), MID (0.5 to below 4), HIGH (4 or more)

Just checking, what class would you give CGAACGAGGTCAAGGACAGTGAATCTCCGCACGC here? HIGH

* * *

- Tested on: PXR:RXRa (NR concentration 270 nM, RXRa partner concentration 90 nM)
- Experimental Protocol: PBM binding z-score (relative to random genomic background probes); higher = stronger binding; sequences stand for … in GC…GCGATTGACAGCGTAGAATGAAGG
Readout Name: PBM binding z-score
Please respond with just the number, no unit label.

Answered examples (6):
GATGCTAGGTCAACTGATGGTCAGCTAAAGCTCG : 1.45
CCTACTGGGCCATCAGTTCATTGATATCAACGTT : 1.18
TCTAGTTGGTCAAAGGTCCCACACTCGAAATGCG : 0.98
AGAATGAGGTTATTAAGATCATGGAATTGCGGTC : 1.53
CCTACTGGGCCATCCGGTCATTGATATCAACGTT : -0.0327
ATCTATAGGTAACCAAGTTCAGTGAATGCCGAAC : 2.46

Endpoint output: PBM binding z-score of CGTCAAAGTCCAACTAAGGTAACGTAAAGCACGC . Value? 0.234

Endpoint output: PBM binding z-score of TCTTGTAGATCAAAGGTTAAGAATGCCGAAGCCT . Value? 1.95

Endpoint output: PBM binding z-score of CCAACTGGGGCAAAGGTTACCATACTCAGTACGA . Value? 2.39

Endpoint output: PBM binding z-score of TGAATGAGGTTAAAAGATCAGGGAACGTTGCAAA . Value? 1.26

* * *

Let's look at some sequences and their measured PBM binding z-score.
- Tested on: PXR:RXRa (NR concentration 270 nM, RXRa partner concentration 90 nM)
- Experimental Protocol: PBM binding z-score (relative to random genomic background probes); higher = stronger binding; sequences stand for … in GC…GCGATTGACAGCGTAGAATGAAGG
Please respond with just the number, no unit label.

Answered examples (3):
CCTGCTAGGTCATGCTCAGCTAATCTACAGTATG : 0.957
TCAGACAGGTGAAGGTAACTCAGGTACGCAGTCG : 0.641
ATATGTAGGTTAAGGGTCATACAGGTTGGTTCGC : 5.37

Endpoint output: PBM binding z-score of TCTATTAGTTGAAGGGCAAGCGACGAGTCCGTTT . Value? 0.841

Endpoint output: PBM binding z-score of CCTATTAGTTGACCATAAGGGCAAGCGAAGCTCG . Value? 0.536

Endpoint output: PBM binding z-score of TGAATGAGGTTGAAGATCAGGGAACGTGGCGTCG . Value? -0.193

* * *

- Tested on: RARb:RXRa (NR concentration 270 nM, RXRa partner concentration 90 nM)
- Experimental Protocol: PBM binding z-score (relative to random genomic background probes); higher = stronger binding; sequences stand for … in GC…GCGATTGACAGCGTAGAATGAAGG
Let's look at some sequences and their measured PBM binding z-score.
Please respond with just the number, no unit label.

Answered examples (2):
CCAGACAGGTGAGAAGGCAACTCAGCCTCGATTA : 0.272
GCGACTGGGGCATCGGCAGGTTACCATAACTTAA : 0.954

Please examine the following record next.
Observed PBM binding z-score on RARb:RXRa (NR concentration 270 nM, RXRa partner concentration 90 nM) for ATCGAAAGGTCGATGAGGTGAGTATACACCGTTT , please. 3.37

* * *

- Tested on: RARg:RXRa (NR concentration 270 nM, RXRa partner concentration 90 nM)
- Experimental Protocol: PBM binding z-score (relative to random genomic background probes); higher = stronger binding; sequences stand for … in GC…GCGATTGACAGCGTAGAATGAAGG
Readout Name: PBM binding z-score

Answered examples (5):
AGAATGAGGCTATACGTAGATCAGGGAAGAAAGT : 0.222
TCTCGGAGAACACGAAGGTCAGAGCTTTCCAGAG : 1.7
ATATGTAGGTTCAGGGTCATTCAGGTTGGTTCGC : 4.1
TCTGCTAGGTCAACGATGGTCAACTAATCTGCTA : 4.12
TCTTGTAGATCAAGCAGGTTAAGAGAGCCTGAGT : -0.24

Endpoint output: PBM binding z-score of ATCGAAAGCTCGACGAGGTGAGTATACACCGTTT . Value? -0.12

* * *

- Tested on: THRa:RXRa (NR concentration 90 nM, RXRa partner concentration 90 nM)
- Experimental Protocol: PBM binding z-score (relative to random genomic background probes); higher = stronger binding; sequences stand for … in GC…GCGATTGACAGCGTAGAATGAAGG
Readout Name: PBM binding z-score
Please respond with just the number, no unit label.

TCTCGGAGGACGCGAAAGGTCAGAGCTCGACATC : 3.01

Observed PBM binding z-score on THRa:RXRa (NR concentration 90 nM, RXRa partner concentration 90 nM) for ACTGACGGGTCAACGAGGTTATAGCACGCGTATA , please. 3.63

Observed PBM binding z-score on THRa:RXRa (NR concentration 90 nM, RXRa partner concentration 90 nM) for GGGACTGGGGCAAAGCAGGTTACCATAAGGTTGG , please. 3.3

Observed PBM binding z-score on THRa:RXRa (NR concentration 90 nM, RXRa partner concentration 90 nM) for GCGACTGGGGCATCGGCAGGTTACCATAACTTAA , please. 1.11

Observed PBM binding z-score on THRa:RXRa (NR concentration 90 nM, RXRa partner concentration 90 nM) for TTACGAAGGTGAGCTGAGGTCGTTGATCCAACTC , please. 4.56

* * *

- Test system: VDR:RXRa (NR concentration 270 nM, RXRa partner concentration 90 nM)
- Experimental Protocol: PBM binding z-score (relative to random genomic background probes); higher = stronger binding; sequences stand for … in GC…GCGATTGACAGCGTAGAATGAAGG
Readout Name: PBM binding z-score
Please respond with just the number, no unit label.

Answered examples (4):
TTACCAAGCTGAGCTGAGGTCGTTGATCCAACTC : 0.877
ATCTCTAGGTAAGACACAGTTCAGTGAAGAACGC : 1.14
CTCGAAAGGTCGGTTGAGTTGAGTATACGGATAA : 3.45
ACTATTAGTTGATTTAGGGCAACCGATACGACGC : 0.131

Endpoint output: PBM binding z-score of TCGACTAGGTTAGTCGGGGCATTCAGCCAACATA . Value? 1.81

Endpoint output: PBM binding z-score of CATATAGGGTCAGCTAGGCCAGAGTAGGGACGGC . Value? 3.7

* * *

Let's look at some sequences and their measured PBM binding z-score.
- System: RARa homodimer (NR concentration 270 nM)
- Experimental Protocol: PBM binding z-score (relative to random genomic background probes); higher = stronger binding; sequences stand for … in GC…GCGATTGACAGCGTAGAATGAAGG
Please respond with just the number, no unit label.

Endpoint output: PBM binding z-score of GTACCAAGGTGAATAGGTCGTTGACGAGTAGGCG . Value? -0.182

Endpoint output: PBM binding z-score of TCATATAGGTAAACAGGAGAAAGTCCGTAAGTTA . Value? 0.767

Endpoint output: PBM binding z-score of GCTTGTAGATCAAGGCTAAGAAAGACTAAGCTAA . Value? -0.656

* * *

- Tested on: PPARg:RXRa IVT, anti-PPARg (NR concentration 270 nM, RXRa partner concentration 90 nM)
- Experimental Protocol: PBM binding z-score (relative to random genomic background probes); higher = stronger binding; sequences stand for … in GC…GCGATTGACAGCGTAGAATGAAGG
Let's look at some sequences and their measured PBM binding z-score.
Please respond with just the number, no unit label.

Endpoint output: PBM binding z-score of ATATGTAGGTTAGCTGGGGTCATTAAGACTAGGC . Value? 6.64

Endpoint output: PBM binding z-score of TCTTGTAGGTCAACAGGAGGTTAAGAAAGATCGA . Value? 8.17

Endpoint output: PBM binding z-score of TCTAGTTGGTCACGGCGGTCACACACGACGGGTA . Value? 3.13

Endpoint output: PBM binding z-score of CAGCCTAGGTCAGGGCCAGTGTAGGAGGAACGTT . Value? 1.58

Endpoint output: PBM binding z-score of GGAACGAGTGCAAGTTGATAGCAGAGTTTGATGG . Value? -0.639

Hello, the source for this data is the supplement of paper PMC6555819, in case you need it.
